Test system: D-amidase
protocol: Enzyme test for acid amides, activity by determination of ammonium ions with glutamate dehydrogenase
Format: biochemical, Variovorax paradoxus
measurement.context: substrate 40 mM; partly purified D-amidase after the 2nd chromatography step (0.51 U/mg)
Exercise: state measured Relative act. for each of the molecules provided.
Your answer is read as U/mg, so omit the unit and give the number.

Report its Relative act. with D-amidase as the test system: CCC(N)=O [Propionamide]
12

Report its Relative act. with D-amidase as the test system: NC(=O)c1cccnc1 [Nicotinamide]
8.5

Report its Relative act. with D-amidase as the test system: CC(=O)CC(N)=O [Acetoacetamide]
58

Report its Relative act. with D-amidase as the test system: CCCCC(N)=O [Valeric acid amide]
16

Report its Relative act. with D-amidase as the test system: CCCC(N)=O [Butyramide]
17

Report its Relative act. with D-amidase as the test system: CC(C)C(N)=O [Isobutyramide]
15

Report its Relative act. with D-amidase as the test system: NC=O [Formamide]
0.061

Report its Relative act. with D-amidase as the test system: NC(=O)CC(N)=O [Malonic acid diamide]
1.5

Report its Relative act. with D-amidase as the test system: CC(N)=O [Acetamide]
2.1

Report its Relative act. with D-amidase as the test system: CC(C)(C)C(N)C(N)=O (racemic) [DL-Tle-NH2, D,L-tert-Leucinamide]
0.51

====

Exercise: state measured Rel. activity with respect to D and L for each of the molecules provided.
Tested on: D-amidase
protocol: Enzyme test for amino acid amides and α-hydroxycarboxylic acid amides (HPLC or NH4+ determination)
Format: biochemical, Variovorax paradoxus
measurement.context: activity for the lower enantiomer set at 1
Answer with a bare number; do not write a unit.

Return Rel. activity with respect to D and L for the following molecule: NC(=O)[C@@H]1CCCN1 [D-Pro-NH2, prolinamide]
1

Return Rel. activity with respect to D and L for the following molecule: CC(C)[C@@H](N)C(N)=O
11

Return Rel. activity with respect to D and L for the following molecule: CC(O)C(N)=O [L-Lac-NH2, lactic acid amide]
1.1

Return Rel. activity with respect to D and L for the following molecule: CC(O)C(N)=O [D-Lac-NH2, lactic acid amide]
1

Return Rel. activity with respect to D and L for the following molecule: NC(=O)C(N)Cc1c[nH]c2ccccc12 (racemic)
2.5

Return Rel. activity with respect to D and L for the following molecule: C[C@H](N)C(N)=O
1

Return Rel. activity with respect to D and L for the following molecule: NC(=O)[C@@H](N)Cc1c[nH]c2ccccc12
1

Return Rel. activity with respect to D and L for the following molecule: CSCCC(N)C(N)=O (racemic)
2.7

Return Rel. activity with respect to D and L for the following molecule: NC(=O)[C@@H]1CCCN1 [L-Pro-NH2, prolinamide]
2.3

Return Rel. activity with respect to D and L for the following molecule: C[C@@H](N)C(N)=O
3.0

Return Rel. activity with respect to D and L for the following molecule: CC(C)C[C@H](N)C(N)=O
1

Return Rel. activity with respect to D and L for the following molecule: CSCC[C@H](N)C(N)=O
1

Return Rel. activity with respect to D and L for the following molecule: NC(=O)[C@@H](N)Cc1ccccc1
1

Return Rel. activity with respect to D and L for the following molecule: CC(C)C[C@@H](N)C(N)=O
15

Return Rel. activity with respect to D and L for the following molecule: CC(C)[C@H](N)C(N)=O
1

Return Rel. activity with respect to D and L for the following molecule: NC(=O)[C@H](N)Cc1ccccc1
4.6

Source listed as patent US20030186423A1.
